- PROTOCOL_TEXT: Primary qHTS for delayed death inhibitors of the malarial parasite plastid, 96 hour incubation
- TEST_SETTINGS: P. falciparum luciferase reporter growth; series mostly up to 28.7 µM
Out of some 320,000 compounds screened, about 22,000 (6.9%) were called active. Another 27% or so got no clear call; they are omitted. The call rests on the fitted dose curve; in most records, active means well fitted inhibition curve with a large enough effect; inconclusive means small, poorly fitted or top-dose-only effect, or another doubt; inactive means no such curve, though single readings can be large or run the other way. Only a selection was taken, and actives are over-represented in it overall.
Outcome codes: 1.0 for active, 0.0 for inactive

1. CC(OC(=O)/C=C/c1ccccc1)C(=O)Nc1ccc(C(N)=O)cc1 (stereo unspecified); 0.0
2. CC1=C(C(=O)OC2CCCCC2)C(c2ccccc2F)NC(=O)N1 (stereo unspecified); 0.0
3. CCn1cc(CN2CCC(C(=O)Nc3cccc(-c4cccc(Cl)c4)c3)CC2)c(C)n1; 0.0
4. Cc1cc(C)cc(N(CC(=O)NC2CCCC2)C(=O)CCC(=O)Nc2cc(C)on2)c1; 0.0
5. COc1ccc(NC(=O)CN(C)C(=O)c2ccc(NC3CC3)c([N+](=O)[O-])c2)cc1; 0.0
6. COc1ccc(N2C(=O)CCC(C(=O)N(C)C3CCCCC3)C2c2ccc(OC)c(OC)c2)cc1 (stereo unspecified); 0.0
7. CCCC(C)NC(=O)C1CCN(C(=O)C2CC(=O)N(c3ccc(C)cc3)C2)CC1 (stereo unspecified); 0.0
8. CC(=O)c1ccc(S(=O)(=O)N2CCN(C(=O)/C=C/c3ccc4ccccc4n3)CC2)cc1; 1.0
9. Cc1ccc2cccc(OCCCOc3ccccc3CO)c2n1; 0.0
10. Cc1ccc(CNC(=O)C(=O)c2cn(CC(=O)N3CCOCC3)c3ccccc23)cc1; 0.0
11. CCOC(=O)c1c(S(=O)(=O)NCC(=O)Nc2ccc(C)cc2)c(C)n(C)c1C; 0.0

---

- PROTOCOL_TEXT: Primary qHTS for delayed death inhibitors of the malarial parasite plastid, 96 hour incubation; further: potency means the concentration at half of the fitted maximal effect
- TEST_SETTINGS: P. falciparum luciferase reporter growth; series mostly up to 28.7 µM
In all, about 320,000 compounds went through this assay and about 22,000 (6.9%) were called active. About 27% were inconclusive and are not listed. The entries come from a sample that favours actives as a whole.
PARAMETER: Potency

1. COc1cc(NC(=O)CCS(=O)(=O)c2ccc3c(c2)oc(=O)n3C)cc(OC)c1; 1.47 µM (active)
2. COc1ccc(CCNS(=O)(=O)c2ccc(F)cc2)cc1OC; inactive
3. O=C(CCNS(=O)(=O)c1ccc(Br)s1)NCc1ccccc1Cl; inactive
4. Cc1ccc2c(c1)N(CC(=O)N1CCOCC1)C(=O)CO2; inactive
5. CCS(=O)(=O)NCCc1ccc(OC)c(OC)c1; inactive
6. Cc1ccc2c(c1)N(CC(=O)NCC1CCCO1)C(=O)CO2 (configuration not stated); 7.38 µM (active)
7. CCOC(=O)c1cc(S(=O)(=O)NCCc2ccc(OC)c(OC)c2)cn1C; 13.1 µM (active)

---

- PROTOCOL_TEXT: Primary qHTS for delayed death inhibitors of the malarial parasite plastid, 96 hour incubation
- TEST_SETTINGS: P. falciparum luciferase reporter growth; series mostly up to 28.7 µM
Screen size: about 320,000 compounds; about 22,000 (6.9%) were called active. Roughly 27% stayed inconclusive and do not appear here. The call rests on the fitted dose curve; in most records, active means well fitted inhibition curve with a large enough effect; inconclusive means small, poorly fitted or top-dose-only effect, or another doubt; inactive means no such curve, though single readings can be large or run the other way. The sample holds actives, similar compounds and a random draw of the others, so the mix is not that of the screen.
Outcome codes: 1 for active, 0 for inactive

1) COc1ccc(-c2cc(C(=O)NCCCn3ccnc3)no2)cc1; 1
2) O=C1N=C(N2CCCC2)S/C1=C\c1cccc(Br)c1; 0
3) O=C(Nc1n[nH]c(C(F)(F)F)n1)c1cccs1; 0
4) O=C1CC2(CC(c3ccc(Cl)cc3)=NO2)C(=O)N1c1ccccc1 (stereo not given); 0
5) Cc1cc(C(=O)N/N=C/c2ccccn2)c2ccccc2n1; 0

---

- PROTOCOL_TEXT: Primary qHTS for delayed death inhibitors of the malarial parasite plastid, 96 hour incubation
- TEST_SETTINGS: P. falciparum luciferase reporter growth; series mostly up to 28.7 µM
Out of some 320,000 compounds screened, about 22,000 (6.9%) were called active. Roughly 27% stayed inconclusive and do not appear here. Calls come from the whole dose curve; as a rule, active = well fitted inhibition curve with a large enough effect; inconclusive = small, poorly fitted or top-dose-only effect, or another doubt; inactive = no such curve, though single readings can be large or run the other way. The list comes from a sample in which actives are over-represented; it also holds close analogues and randomly drawn compounds.
Outcomes: True for active, False for inactive

1. COC(=O)CC1=NN(c2nc(C)cc(C)n2)C(=O)C1; False
2. O=C(CN1C(=O)COc2ccc(Cl)cc21)Nc1ccc(N2CCOCC2)cc1; False
3. C/C(N)=C(/C#N)C(=O)COC(=O)C1=NN(c2ccccc2)C(=O)CC1; False
4. CC(=O)N(C)c1ccc(NC(=O)C(F)(F)F)cc1; False
5. O=C(CN1C(=O)COc2ccccc21)NCCN1CCc2ccccc2C1; False
6. COC(=O)CC1=NN(c2ccccc2)C(=O)C1; True

---

- PROTOCOL_TEXT: Primary qHTS for delayed death inhibitors of the malarial parasite plastid, 96 hour incubation
- TEST_SETTINGS: P. falciparum luciferase reporter growth; series mostly up to 28.7 µM
Screen size: about 320,000 compounds; about 22,000 (6.9%) were called active. Another 27% or so got no clear call; they are omitted. Calls come from the whole dose curve; as a rule, active = well fitted inhibition curve with a large enough effect; inconclusive = small, poorly fitted or top-dose-only effect, or another doubt; inactive = no such curve, though single readings can be large or run the other way. This is one part of a sample in which actives are shown more often than they occur.
Classes used: 1 for active, 0 for inactive

1. O=C(Nc1cccc(-c2cccc(Cl)c2)c1)C1CCN(C2CCC2)CC1; 1
2. Cc1cccc(N(Cc2ccccc2)C(=O)c2ccccc2F)c1; 0
3. CCCCCCCCCCCCN1C(=O)CSC1c1cccnc1 (stereo not drawn); 1

---

- PROTOCOL_TEXT: Primary qHTS for delayed death inhibitors of the malarial parasite plastid, 96 hour incubation
- TEST_SETTINGS: P. falciparum luciferase reporter growth; series mostly up to 28.7 µM
Screen size: about 320,000 compounds; about 22,000 (6.9%) were called active. Another 27% or so got no clear call; they are omitted. Calls come from the whole dose curve; as a rule, active = well fitted inhibition curve with a large enough effect; inconclusive = small, poorly fitted or top-dose-only effect, or another doubt; inactive = no such curve, though single readings can be large or run the other way. What follows is part of a selection rich in actives, with near analogues and random picks from the rest.
Possible outcomes: active, inactive

1) CCn1c(=O)c(=O)n(CC)c2cc(N3CCCCC3)c(NC(=O)c3ccc(Cl)cc3)cc21; inactive
2) CCC1(c2ccccc2)C(=O)NC(=O)N(C)C1=O (stereo not given); active
3) O=C1CC(c2cccc(Br)c2)C2=C(CCCC2=O)N1 (stereo not given); inactive
4) COc1ccc(N2CCN(C(=O)C3CCN(C(=O)c4ccccc4Cl)CC3)CC2)cc1; inactive
5) CCOC(=O)C1CCCN(S(=O)(=O)c2ccc(-n3cnnn3)c(C)c2)C1 (stereo not given); inactive
6) CCCCNC(=O)CCn1nc(-c2ccc(Cl)cc2)ccc1=O; inactive
7) O=C(NCCCN1CCOCC1)c1cc(-c2cccc(O)c2)on1; inactive
8) CC1CCCN(S(=O)(=O)c2ccc(-c3ccc(=O)[nH]n3)o2)C1 (stereo not given); inactive
9) COc1ccc(-n2ncc3c(SCC(=O)NNC(C)=O)ncnc32)cc1; inactive
10) CCCCC1(C(=O)OCC)NC(c2ccc(O)cc2)C2C(=O)N(c3ccccc3)C(=O)C21 (stereo not given); inactive
11) CCCC(=O)Nc1ncnc2c1ncn2[C@@H]1O[C@@H]2OP(=O)(O)OC[C@H]2[C@H]1OC(=O)CCC; inactive
12) Cc1ccc(C(=O)NCC(=O)OCC(=O)Nc2cccc(S(=O)(=O)N3CCCC3)c2)cc1C; inactive
13) O=C1OCC2=C1C(c1ccccc1)CC(=O)N2c1cccc(F)c1 (stereo not given); inactive
14) CCOC(=O)c1sc(NC(=O)c2sc(C)nc2C)nc1C; inactive
15) O=S(=O)(NC1CC1)c1ccc(F)c(F)c1; inactive
16) Cc1c(C=O)n(C)n(-c2ccccc2)c1=O; inactive
17) CCCC(=O)Nc1ccc2c(c1)nc(CCNC(=O)c1ccco1)n2C; inactive
18) CCN(CC(=O)NCC(=O)Nc1cccc(C)c1C)Cc1ccccc1; inactive
19) Cc1cc(=O)oc2c(C(=O)c3ccccc3)c(OCC(N)=O)ccc12; inactive
20) O=C1CC(c2cccc(F)c2)C2=C(CCCC2=O)N1 (stereo not given); active

---

- PROTOCOL_TEXT: Primary qHTS for delayed death inhibitors of the malarial parasite plastid, 96 hour incubation
- TEST_SETTINGS: P. falciparum luciferase reporter growth; series mostly up to 28.7 µM
Among all 320,000 compounds or so, about 22,000 (6.9%) were called active. About 27% were inconclusive and are not listed. Calls follow the shape of the dose curve; as a rule, active = well fitted inhibition curve with a large enough effect; inconclusive = small, poorly fitted or top-dose-only effect, or another doubt; inactive = no such curve, though single readings can be large or run the other way. This excerpt belongs to a sample that is enriched for actives.
Outcome codes: active, inactive

1) O=C1COc2ccc(NC(=O)N3CCN(c4ccc(F)cc4)CC3)cc2N1; inactive
2) COc1cc(OC)cc(-c2c(-c3ccc(F)cc3)c3cc(-c4ccc5cc[nH]c5c4)ccc3n2C)c1; active
3) COc1ccc(CN2CCC(n3nccc3NC(=O)CCCc3ccccc3)CC2)cc1C; inactive
4) COc1ccc(OC)c(-c2csc(-c3cccs3)n2)c1; inactive

---

- PROTOCOL_TEXT: Primary qHTS for delayed death inhibitors of the malarial parasite plastid, 96 hour incubation
- TEST_SETTINGS: P. falciparum luciferase reporter growth; series mostly up to 28.7 µM
Among all 320,000 compounds or so, about 22,000 (6.9%) were called active. About 27% were inconclusive and are not listed. Calls come from the whole dose curve; as a rule, active = well fitted inhibition curve with a large enough effect; inconclusive = small, poorly fitted or top-dose-only effect, or another doubt; inactive = no such curve, though single readings can be large or run the other way. This is one part of a sample in which actives are shown more often than they occur.
Labels: active, inactive

1. NC(=O)c1cc(S(=O)(=O)NCCCc2ccco2)cs1; inactive
2. O=C(NCc1cccs1)c1ccc(CS(=O)Cc2ccccc2Cl)o1 (stereo not given); inactive
3. CN1CCN(S(=O)(=O)c2cccc(C(=O)Nc3cccc(S(N)(=O)=O)c3)c2)CC1; inactive
4. CCCCn1c(N)c(N(CC)C(=O)c2ccccc2C(F)(F)F)c(=O)[nH]c1=O; inactive
5. CN1CCN(c2ncc3c(n2)CC(c2ccccc2F)CC3=O)CC1 (stereo not given); inactive
6. COc1ccc(CN2CCNC(=O)C2CC(=O)NCc2cn[nH]c2-c2ccccc2)c(F)c1 (stereo not given); inactive
7. COc1ccc(C(=O)NCC2CCCN2S(=O)(=O)c2cccs2)cc1OC (stereo not given); inactive
8. Cc1ccc(SCc2cc(=O)[nH]c(N3CCCCC3)n2)cc1; active
9. O=C(COC(=O)c1cccc(Cl)c1)NC1CCCCCCC1; inactive
10. O=C(O)COCC(=O)NCc1csc2ccc(Cl)cc12; inactive
